study.system: human VMAT2 (Homo sapiens (Human), UniProt Q05940)
Sequence (Q05940 whole entry): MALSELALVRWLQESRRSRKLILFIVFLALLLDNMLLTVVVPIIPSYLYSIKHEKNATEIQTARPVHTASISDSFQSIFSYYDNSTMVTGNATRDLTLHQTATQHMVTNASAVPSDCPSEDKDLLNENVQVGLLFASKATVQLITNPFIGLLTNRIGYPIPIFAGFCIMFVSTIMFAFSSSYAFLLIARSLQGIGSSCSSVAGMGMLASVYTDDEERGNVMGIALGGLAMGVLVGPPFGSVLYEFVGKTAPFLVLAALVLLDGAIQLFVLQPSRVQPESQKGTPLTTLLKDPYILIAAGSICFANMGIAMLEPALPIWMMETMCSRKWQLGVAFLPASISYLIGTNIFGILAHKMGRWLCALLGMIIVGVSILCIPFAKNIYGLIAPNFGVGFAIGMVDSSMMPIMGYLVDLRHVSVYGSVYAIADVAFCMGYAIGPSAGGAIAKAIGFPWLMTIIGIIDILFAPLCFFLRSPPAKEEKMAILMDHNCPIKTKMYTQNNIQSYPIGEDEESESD
procedure.details: VMAT2 radioligand binding, 3H-dihydrotetrabenazine competition on human platelet homogenate
test.context: 10 nM 3H-dihydrotetrabenazine, human platelet homogenate, 25° C., 90 minutes; read-out: VMAT2 Ki
pKi: −log10 of the molar value.
Please note: yes (1) applies when pKi is 8 or greater, and no (0) applies otherwise.

COc1cc2c(cc1OCc1ccon1)CCN1C[C@@H](CC(C)(C)C)[C@H](O)C[C@H]21 [Compound 4-69] = no (0)
COc1cc2c(cc1OCCC(F)(F)F)CCN1C[C@H](CC(C)(C)C)[C@@H](O)C[C@@H]21 [Compound 4-9] = no (0)
COc1cc2c(cc1OC[C@@H](C)OC)CCN1C[C@@H](CC(C)(C)C)[C@H](O)C[C@H]21 [Compound 4-91] = no (0)
COc1cc2c(cc1OCC1(O)CCC(F)(F)CC1)CCN1C[C@@H](CC(C)(C)C)[C@H](O)C[C@H]21 [Compound 4-76] = no (0)
COc1cc2c(cc1OCc1ccc(C#N)o1)CCN1C[C@@H](CC(C)(C)C)[C@H](O)C[C@H]21 [Compound 4-59] = yes (1)

Has COc1cc2c(cc1OCCOC(C#N)C1CC1)CCN1C[C@@H](CC(C)(C)C)[C@H](O)C[C@H]21 (stereo partly shown) [Compound 4-43] a recorded pKi greater than or equal to 8?
yes (1)

Hi, just wondering whether COc1cc2c(cc1OC)[C@@H]1C[C@H](O)[C@@H](CC(C)(C)C)CN1CC2 [Compound 5-3] shows pKi of 8 or higher.
no (0)

Hello, I need to know if COc1cc2c(cc1OC[C@H](O)C(F)(F)F)CCN1C[C@@H](CC(C)(C)C)[C@H](O)C[C@H]21 [Compound 4-50] has measured pKi not below 8. Thanks!
yes (1)

In plain terms: is recorded pKi at least 8 for COc1cc2c(cc1OCCF)CCN1C[C@@H](CC(C)(C)C)[C@H](O)C[C@H]21 [Compound 4-18] ?
yes (1)

Has COc1cc2c(cc1OCC(=O)N(C)CC(F)(F)F)CCN1C[C@@H](CC(C)(C)C)[C@H](O)C[C@H]21 [Compound 4-84] a recorded pKi greater than or equal to 8?
no (0)

====

procedure.details: Stability of compounds in human liver microsomes
Format: in vitro ADME
test.context: both sexes, pH 7.4; 0.5 μM compound, 0.5 mg/mL human liver microsomes, 37° C.; maxed at 420 minutes; read-out: HLM Elimination half-life (t1/2, min)
recorded.metric: half-life at 0.5 μM (min)
Just the number please, in min, no unit attached.

For orientation, consider the following solved cases.
COc1cc2c(cc1OCCOCC#N)CCN1C[C@@H](CC(C)(C)C)[C@H](O)C[C@H]21 [Compound 4-70] = 110
C=C(C)COc1cc2c(cc1OC)[C@H]1C[C@@H](O)[C@H](CC(C)(C)C)CN1CC2 [Compound 4-56] = 10
COc1cc2c(cc1OCCOC1(C#N)CCC1)CCN1C[C@@H](CC(C)(C)C)[C@H](O)C[C@H]21 [Compound 4-23] = 21
COc1cc2c(cc1OCc1ccon1)CCN1C[C@@H](CC(C)(C)C)[C@H](O)C[C@H]21 [Compound 4-69] = 80
COc1cc2c(cc1OCC1CC(O)(C(F)(F)F)C1)CCN1C[C@@H](CC(C)(C)C)[C@H](O)C[C@H]21 (stereo partly shown) [Compound 4-78] = 195

What half-life at 0.5 μM value was documented for this compound, COc1cc2c(cc1OCCC1(C#N)CC1)CCN1C[C@@H](CC(C)(C)C)[C@H](O)C[C@H]21 [Compound 4-45] ?
129

Name the reported half-life at 0.5 μM value associated with the compound COc1cc2c(cc1OCCc1ccc(C(F)(F)F)cc1)CCN1C[C@@H](CC(C)(C)C)[C@H](O)C[C@H]21 [Compound 4-74]
36

Entry COc1cc2c(cc1OC(C)C)CCN1C[C@@H](CC(C)(C)C)[C@H](O)C[C@H]21 [Compound 4-38] : reported half-life at 0.5 μM = ?
58

Which half-life at 0.5 μM value is on record for COc1cc2c(cc1O[C@@H]1CCOC1)CCN1C[C@@H](CC(C)(C)C)[C@H](O)C[C@H]21 [Compound 4-53] ?
146
